target: β-secretase(BACE) (Homo sapiens); construct: purchased Panvera; experiment: BACE Assay-2 (FS1 substrate, IC50 and Ki); assay type: biochemical; conditions: procedure of Example 159, FS1 substrate; read-out: Ki μM (159)
Sequence (P56817 46-501): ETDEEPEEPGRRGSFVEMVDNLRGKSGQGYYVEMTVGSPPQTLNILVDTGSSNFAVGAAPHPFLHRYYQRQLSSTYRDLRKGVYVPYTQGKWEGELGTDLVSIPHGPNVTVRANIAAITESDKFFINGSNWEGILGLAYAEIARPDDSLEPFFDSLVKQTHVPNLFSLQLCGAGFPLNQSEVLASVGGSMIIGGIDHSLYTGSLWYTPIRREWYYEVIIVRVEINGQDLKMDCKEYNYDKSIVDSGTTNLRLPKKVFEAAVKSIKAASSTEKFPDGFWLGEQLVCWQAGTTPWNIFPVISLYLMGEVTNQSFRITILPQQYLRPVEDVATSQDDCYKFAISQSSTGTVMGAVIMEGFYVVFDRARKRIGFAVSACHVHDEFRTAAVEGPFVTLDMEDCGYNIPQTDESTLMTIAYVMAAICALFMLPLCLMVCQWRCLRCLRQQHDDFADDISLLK
measured metric: Ki (µM)

CN(C(=O)CCCCN1Cc2cc(Oc3cccc(NS(=O)(=O)c4ccccc4)c3)ccc2N=C1N)C1CCCCC1	0.27

[A] CCCCS(=O)(=O)NCCN1Cc2cc(Oc3ccccc3)ccc2N=C1N
[B] CN(C(=O)c1cccc(CN2Cc3cc(-c4csc5ccccc45)ccc3N=C2N)c1)C1CCCCC1
stdin: I'd appreciate it if you could identify which of A and B has the greater Ki. Give the label under which the chosen entry appears.
stdout: B
(B: 1.1 µM, A: 0.29 µM)
